test system: SW-620 colon; test: NCI tumour cell line growth inhibition, 48 h
quantity_name: TGI

# example entries with known answers
| compound | assay_system | TGI |
| --- | --- | --- |
| N#CC1(C#N)C2C=CC(c3coc4cccc2c34)C1(C#N)C#N (stereo not given) | SW-620 colon | 3.32 µM |
| CC(=O)c1ccc2c(c1)CC1(C2)Cc2ccc3c(c2C1=O)CCC3 (stereo not given) | SW-620 colon | > 100 µM |
| CN=C(N)c1ccc(N=C(N)c2ccc(C(N)=Nc3ccc(C(N)=NC)cc3)cc2)cc1 | SW-620 colon | > 100 µM |

Could you tell me TGI for each of these compounds? They are listed below.
1. C=C1C(OC(=O)/C=C/c2ccccc2)CC(OC(C)=O)C2(C)C1CC1CC(OC(C)=O)C(C)=C(C(OC(C)=O)C2OC(C)=O)C1(C)C (stereo not given)
2. COC(=O)C(COC(=O)/C=C/c1ccc(OC(C)=O)c(OC(C)=O)c1)NC(=O)/C=C/c1ccc(OC(C)=O)c(OC(C)=O)c1 (stereo not given)

1. > 100 µM
2. > 100 µM

----------
test system: T-47D breast; experiment: NCI tumour cell line growth inhibition, 48 h
Provide the recorded TGI for the entries that follow.

Could you tell me TGI for each of these compounds? They are listed below.
1. O=C(NNC(=S)NCc1ccccc1)c1csc(NC(=S)NC2CCCCC2)n1
2. O=c1c(-c2ccccc2F)coc2cc(F)ccc12
3. OCCNc1nc(Nc2ccc(Cl)c(Cl)c2)nc2ccccc12
4. COc1cc(-c2csc(NC(=O)Nc3ccc(C(F)(F)F)cc3)n2)cc(OC)c1OC
5. COc1cccc(Nc2nc(N)nc(N)c2N)c1
6. O=c1[nH]nc(-c2ccccc2)n1/N=C/c1ccccc1Cl
7. COc1ccc(N=NC(=Nc2ccc(Cl)cc2)c2ccc(N(CCC#N)CCC#N)cc2)cc1

1: 95.4 µM; 2: > 100 µM; 3: 25.9 µM; 4: 7.65 µM; 5: > 100 µM; 6: > 100 µM; 7: 78 µM

----------
Provide the recorded TGI for the entries that follow.
test system: SF-539 CNS; assay: NCI tumour cell line growth inhibition, 48 h
Give bare numbers, in µM.

| compound | TGI [µM] |
| --- | --- |
| CC(NC(=O)c1ccc(NP(=O)(OCc2ccc([N+](=O)[O-])o2)N(C)CCCCCl)cc1)c1ccc(OCC2CCCCC2)c(C(N)=O)c1 (stereo not given) | 33.7 |
| CC1(N)CCN(c2cnc(-c3cccc(Cl)c3Cl)c(N)n2)CC1 | 31.5 |
| N#CC(C#N)N=Nc1ccc(-c2nc3ccccc3o2)cc1 | 26.1 |
| CC([C@H]1CCC2C3CCC4C[C@@H](N)CC[C@]4(C)C3CC[C@@]21C)N(C)C (stereo not given in full) | 4.98 |

Given the compound CCN(CC)c1ccc(/C=C/C(=O)c2cc(C(C)(C)C)c(O)c(C(C)(C)C)c2)cc1 , what is its reported TGI?
10.5

----------
system: HCT-116 colon; experiment: NCI tumour cell line growth inhibition, 48 h
quantity_name: TGI (µM)
Answers are plain numbers, in µM.

| compound | assay_system | TGI [µM] |
| --- | --- | --- |
| O=C(O)c1c(=O)cccc2ssc12 | HCT-116 colon | 3.32 |

Could you tell me TGI for each of these compounds? They are listed below.
1. CC1=C(/C=C/C(C)=C/C=C/C(C)=C/C(=O)O)C(C)(C)CCC1
2. CC(=O)O[C@H]1[C@@H]2OC(=O)C(CSc3ccccc3)[C@@H]2C[C@H]2O[C@]2(C)CC/C=C(\C)CCC[C@@H]1C (stereo not given in full)
3. CC(CN(C)C)Oc1ccccc1NC1=C(Cl)C(=O)C(Nc2ccccc2OC(C)CN(C)C)=C(Cl)C1=O (stereo not given)
4. N#Cc1cc(S(=O)(=O)Nc2nnc(-c3ccccc3)c(-c3ccccc3)n2)c(SCc2ccccc2)cc1Cl
5. Cc1cc2c(C(N)=O)c(N)n(-c3c(C)ccc(O)c3C)c2nc1C

64.2
2.91
0.344
36.2
15.2
